Reference source: ChEMBL document CHEMBL4834405

assay: Selectivity ratio of Kd for displacement of fluorescent tracer 5-(3-(4-((1S,5S,6S)-10-(3,5-dichlorophenylsulfonyl)-2-oxo-3-(pyridin-3-ylmethyl)-3,10-diazabicyclo[4.3.1]decan-5-yl)-1H-1,2,3-triazol-1-yl)propylcarbamoyl)-2-(6-(dimethylamino)-3-(dimethyliminio)-3H-xanthen-9-yl)benzoate from recombinant full length C-terminal FLAG-tagged FKBP12.6 (unknown origin) to Kd for displacement of fluorescent tracer 5-(3-(4-((1S,5S,6S)-10-(3,5-dichlorophenylsulfonyl)-2-oxo-3-(pyridin-3-ylmethyl)-3,10-diazabicyclo[4.3.1]decan-5-yl)-1H-1,2,3-triazol-1-yl)propylcarbamoyl)-2-(6-(dimethylamino)-3-(dimethyliminio)-3H-xanthen-9-yl)benzoate from recombinant full length C-terminal FLAG-tagged FKBP51 (unknown origin)
Measurement Name: Selectivity ratio

# annotated cases, reported Selectivity ratio shown
COc1ccc(CC[C@H]2OC(=O)[C@@H]3CCCCN3C(=O)[C@@H](C3CCCCC3)c3cc(OC)c(c(OC)c3)OCC(O)C(O)COc3cccc2c3)cc1OC (mixture of isomers); 7
COc1ccc(CC[C@H]2OC(=O)[C@@H]3CCCCN3C(=O)[C@@H](C3CCCCC3)c3cc(OC)c(c(OC)c3)OCCOCCCCOc3cccc2c3)cc1OC; 3.1
COc1ccc(CC[C@H]2OC(=O)[C@@H]3CCCCN3C(=O)[C@@H](C3CCCCC3)c3cc(OC)c(OC)c(c3)OCCCCCOc3cccc2c3)cc1OC; 2.2

P = COc1ccc(CC[C@H]2OC(=O)[C@@H]3CCCCN3C(=O)[C@@H](C3CCCCC3)c3cc(OC)c(OC)c(c3)OCCOc3cccc2c3)cc1OC
Q = COc1ccc(CC[C@H]2OC(=O)[C@@H]3CCCCN3C(=O)[C@@H](C3CCCCC3)c3cc(OC)c(OC)c(c3)OCC/C=C/COc3cccc2c3)cc1OC
R = COc1ccc(CC[C@H]2OC(=O)[C@@H]3CCCCN3C(=O)[C@@H](C3CCCCC3)c3cc(OC)c(c(OC)c3)OCCC(=O)COc3cccc2c3)cc1OC
S = COc1ccc(CC[C@H]2OC(=O)[C@@H]3CCCCN3C(=O)[C@@H](C3CCCCC3)c3cc(OC)c(OC)c(c3)OCCCOCCCCOc3cccc2c3)cc1OC
Output the entries ranked by Selectivity ratio from maximum down to minimum. Answer by writing out the labels in the requested order.
Q, R, S, P
(Q: 6.3, R: 3.4, S: 2.2, P: 1.5)

A = COc1ccc(CC[C@H]2OC(=O)[C@@H]3CCCCN3C(=O)[C@@H](C3CCCCC3)c3cc(OC)c(OC)c(c3)OCCOCC(=O)CCOc3cccc2c3)cc1OC
B = COc1ccc(CC[C@H]2OC(=O)[C@@H]3CCCCN3C(=O)[C@@H](C3CCCCC3)c3cc(OC)c(OC)c(c3)OCCCOc3cccc2c3)cc1OC
Lab note: check whether A or B has the lower measured Selectivity ratio. // output: label of the selected item
B

a = COc1ccc(CC[C@H]2OC(=O)[C@@H]3CCCCN3C(=O)[C@@H](C3CCCCC3)c3cc(OC)c(OC)c(c3)OCC/C=C\COc3cccc2c3)cc1OC
b = COc1ccc(CC[C@H]2OC(=O)[C@@H]3CCCCN3C(=O)[C@@H](C3CCCCC3)c3cc(OC)c(c(OC)c3)OCC/C=C\COc3cccc2c3)cc1OC
c = COc1ccc(CC[C@H]2OC(=O)[C@@H]3CCCCN3C(=O)[C@@H](C3CCCCC3)c3cc(OC)c(OC)c(c3)OCCCOC/C=C\COc3cccc2c3)cc1OC
d = COc1ccc(CC[C@H]2OC(=O)[C@@H]3CCCCN3C(=O)[C@@H](C3CCCCC3)c3cc(OC)c(c(OC)c3)OCCCOCCCCOc3cccc2c3)cc1OC
Rank by Selectivity ratio (largest to smallest). List the labels in the requested order.
b, d, c, a
